Biological target: rat brain N-type calcium channel subunits (α1B+α2δ+β1b cDNA subunits) (Rattus norvegicus, UniProt Q02294)
Construct: expressed in transfected cells; host or cells: HEK 293
Test: N-type calcium channel block, whole cell patch clamp in HEK 293 cells
Assay type: cell-based
Settings: tonic block, low frequency stimulation 0.067 Hz, holding potential −80 mV to +10 mV, 5 mM BaCl2; read-out: IC50 at 0.067 Hz
Quantity Measured: pIC50
Scale explanation: pIC50 corresponds to minus log10 of a concentration expressed in moles per litre.

Example cases with answers are listed next.
CN(C(=O)CC(c1ccccc1)c1ccccc1)[C@@H]1CCN(C(c2ccccc2)c2cccnc2)C1 (stereo partly shown) [Compound P11]    6.41
COc1c(C(C)(C)C)cc(C(=O)N(C)[C@@H]2CCN(C(=O)CCCCC(c3ccc(F)cc3)c3ccc(F)cc3)C2)cc1C(C)(C)C [Compound P1]    6.92
CN(C(=O)CC(c1ccccc1)c1ccccc1)[C@@H]1CCN(C(c2ccccc2)c2ccncc2)C1 (stereo partly shown) [Compound P10]    6.15
CN(C(=O)CN(c1ccccc1)c1ccccc1)[C@H]1CCN(C(c2ccccc2)c2ccccc2)C1 [Compound P14]    6.44

Suppose we examine the compound CN(C(=O)CC(c1ccccc1)c1ccccc1)[C@H]1CCN(C(c2ccccc2)c2ccccc2)C1 [Compound P6] ; what pIC50 value has been reported?
6.20

Suppose we examine the compound CN(C(=O)CC(c1ccccc1)c1ccccc1)[C@@H]1CCN(C(c2ccccc2)c2ccccc2)C1 [Compound P3] ; what pIC50 value has been reported?
6.95

Suppose we examine the compound COc1c(C(C)(C)C)cc(C(=O)N(C)[C@H]2CCN(C(=O)CCCCC(c3ccc(F)cc3)c3ccc(F)cc3)C2)cc1C(C)(C)C [Compound P4] ; what pIC50 value has been reported?
7.03

----------
Reported values of IC50 for individual entries
Target: human α1G T-type channels (Homo sapiens, UniProt O43497)
Construct: expressed in transfected cells
Sequence (O43497 whole entry): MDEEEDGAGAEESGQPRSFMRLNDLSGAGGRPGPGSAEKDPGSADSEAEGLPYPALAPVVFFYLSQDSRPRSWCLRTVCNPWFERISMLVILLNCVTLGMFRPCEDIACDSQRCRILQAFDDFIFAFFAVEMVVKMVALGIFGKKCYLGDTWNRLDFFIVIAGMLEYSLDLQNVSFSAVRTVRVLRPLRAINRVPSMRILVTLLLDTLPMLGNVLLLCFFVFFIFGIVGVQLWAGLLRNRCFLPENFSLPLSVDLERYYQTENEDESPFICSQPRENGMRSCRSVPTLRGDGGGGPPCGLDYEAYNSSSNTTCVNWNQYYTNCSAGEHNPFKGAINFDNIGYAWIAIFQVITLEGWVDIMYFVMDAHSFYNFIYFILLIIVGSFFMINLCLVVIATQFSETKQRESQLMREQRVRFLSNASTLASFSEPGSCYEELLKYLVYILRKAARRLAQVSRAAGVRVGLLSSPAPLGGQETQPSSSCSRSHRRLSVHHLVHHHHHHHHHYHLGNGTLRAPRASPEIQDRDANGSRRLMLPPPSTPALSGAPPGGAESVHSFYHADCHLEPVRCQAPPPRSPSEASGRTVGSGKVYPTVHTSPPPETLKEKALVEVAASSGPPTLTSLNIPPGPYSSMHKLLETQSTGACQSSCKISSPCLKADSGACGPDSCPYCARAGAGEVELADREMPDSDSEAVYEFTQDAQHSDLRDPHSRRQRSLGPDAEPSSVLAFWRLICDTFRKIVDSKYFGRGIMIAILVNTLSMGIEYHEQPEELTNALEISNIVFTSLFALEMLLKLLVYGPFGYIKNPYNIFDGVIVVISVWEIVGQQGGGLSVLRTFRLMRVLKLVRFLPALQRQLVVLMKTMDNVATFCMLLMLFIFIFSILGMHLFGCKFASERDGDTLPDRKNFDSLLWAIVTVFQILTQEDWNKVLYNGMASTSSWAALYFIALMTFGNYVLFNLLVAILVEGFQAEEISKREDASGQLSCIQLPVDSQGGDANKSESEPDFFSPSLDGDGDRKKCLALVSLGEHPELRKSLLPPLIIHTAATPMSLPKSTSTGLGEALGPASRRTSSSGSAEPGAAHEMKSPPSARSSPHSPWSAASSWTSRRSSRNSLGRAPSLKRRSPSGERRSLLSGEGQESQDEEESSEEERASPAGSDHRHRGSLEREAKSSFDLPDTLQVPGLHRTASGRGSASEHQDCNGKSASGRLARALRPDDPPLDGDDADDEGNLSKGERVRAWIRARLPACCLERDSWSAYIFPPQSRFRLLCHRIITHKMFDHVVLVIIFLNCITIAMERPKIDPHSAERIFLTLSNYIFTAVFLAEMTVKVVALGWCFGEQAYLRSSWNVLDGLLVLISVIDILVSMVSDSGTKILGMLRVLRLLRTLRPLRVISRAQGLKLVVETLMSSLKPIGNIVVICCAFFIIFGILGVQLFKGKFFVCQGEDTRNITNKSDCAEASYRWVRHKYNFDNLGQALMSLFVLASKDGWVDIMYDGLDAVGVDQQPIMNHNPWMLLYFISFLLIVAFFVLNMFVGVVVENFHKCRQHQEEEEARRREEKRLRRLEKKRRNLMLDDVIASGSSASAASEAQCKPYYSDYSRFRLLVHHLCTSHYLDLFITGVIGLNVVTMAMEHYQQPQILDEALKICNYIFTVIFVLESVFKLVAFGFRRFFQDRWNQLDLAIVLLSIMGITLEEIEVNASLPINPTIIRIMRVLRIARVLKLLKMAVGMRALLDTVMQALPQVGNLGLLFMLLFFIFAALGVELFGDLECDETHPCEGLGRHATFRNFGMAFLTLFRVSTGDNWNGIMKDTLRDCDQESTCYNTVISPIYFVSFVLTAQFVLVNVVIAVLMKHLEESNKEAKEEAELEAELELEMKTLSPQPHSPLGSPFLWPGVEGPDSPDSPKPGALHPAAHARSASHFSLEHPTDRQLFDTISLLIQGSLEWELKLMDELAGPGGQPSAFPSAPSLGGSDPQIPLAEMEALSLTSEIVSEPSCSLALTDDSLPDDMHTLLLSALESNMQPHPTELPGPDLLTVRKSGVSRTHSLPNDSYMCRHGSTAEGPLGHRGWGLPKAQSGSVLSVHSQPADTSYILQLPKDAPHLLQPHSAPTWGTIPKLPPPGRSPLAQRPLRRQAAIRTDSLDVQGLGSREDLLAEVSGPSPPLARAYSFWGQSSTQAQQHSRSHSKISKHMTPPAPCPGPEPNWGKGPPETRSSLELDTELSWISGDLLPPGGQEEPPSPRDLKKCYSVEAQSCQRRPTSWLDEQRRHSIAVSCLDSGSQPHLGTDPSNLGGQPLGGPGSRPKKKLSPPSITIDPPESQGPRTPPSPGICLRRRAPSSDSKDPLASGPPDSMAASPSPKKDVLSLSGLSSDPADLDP
Assay: Block of α1G T-type channels, whole-cell patch clamp in HEK cells
Assay type: cell-based
Conditions: −100 mV (non-inactivating protocol), test pulse −40 mV; read-out: IC50 at −100 mV
Give your result in nM as a bare value.

CN(C(=O)CN(c1ccccc1)c1ccccc1)[C@H]1CCN(C(c2ccccc2)c2ccccc2)C1 [Compound P14]    609

Give the reported IC50 for CN(C(=O)CC(c1ccccc1)c1ccccc1)[C@H]1CCN(Cc2ccncc2)C1 [Compound P13] (system: human α1G T-type channels (Homo sapiens, UniProt O43497)).
5000

Give the reported IC50 for CN(C(=O)NC(c1ccccc1)c1ccccc1)[C@H]1CCN(C(c2ccccc2)c2ccccc2)C1 [Compound P16] (system: human α1G T-type channels (Homo sapiens, UniProt O43497)).
2200
